System: Klebsiella pneumoniae
Assay: Antibacterial activity against Klebsiella pneumoniae expressing KPC by broth microdilution method
Format: functional
Measured MIC90 values are reported for all entries that follow.

QUERY SMILES	MIC90
CC(C)(O/N=C(\C(=O)N[C@@H]1C(=O)N(S(=O)(=O)O)[C@@H]1CNC(=O)NCc1cc(=O)c(O)cn1O)c1csc(N)n1)C(=O)O	16 µg/mL
C[C@@H](O)[C@H]1C(=O)N2C(C(=O)O)=C(S[C@@H]3CN[C@H](C(=O)N(C)C)C3)[C@H](C)[C@H]12	> 64 µg/mL
C[C@H]1[C@H](NC(=O)/C(=N\OC(C)(C)C(=O)O)c2csc(N)n2)C(=O)N1S(=O)(=O)O	> 64 µg/mL
NCC[C@H](O)C(=O)N[C@@H]1C[C@H](N)[C@@H](O[C@H]2O[C@H](CN)[C@@H](O)[C@H](O)[C@H]2O)[C@H](O)[C@H]1O[C@H]1O[C@H](CO)[C@@H](O)[C@H](N)[C@H]1O	> 64 µg/mL

Answer with the recorded MIC90 of "CO/N=C(\C(=O)N[C@@H]1C(=O)N2C(C(=O)[O-])=C(C[N+]3(C)CCCC3)CS[C@H]12)c1csc(N)n1" only.
> 64 µg/mL

* * *

Experiment: Inhibition of PBP1a in Pseudomonas aeruginosa ATCC 27853 after 20 mins by fluorescence assay
VALUE TYPE: IC50 (nM)
Kindly provide the numeric value in nM only, without the unit symbol.

                                   molecule  experimental_value
0  CC(C)(O/N=C(\C(=O)N[C@@H]1C(=O)N(S(=O)(=O)O)[C@@H]1CNC(=O)NCc1cc(=O)c(O)cn1O)c1csc(N)n1)C(=O)O                 620
1  CC(C)(O/N=C(\C(=O)N[C@@H]1C(=O)N(S(=O)(=O)O)[C@@H]1CNC(=O)c1cc(=O)c(O)cn1-c1ccccc1)c1csc(N)n1)C(=O)O                 580

Answer with the recorded IC50 of C[C@H]1[C@H](NC(=O)/C(=N\OC(C)(C)C(=O)O)c2csc(N)n2)C(=O)N1S(=O)(=O)O [AZTREONAM] only.
3340

Output IC50 of "CC(C)(O/N=C(\C(=O)N[C@@H]1C(=O)N(S(=O)(=O)[O-])[C@@H]1CNC(=O)c1cc(-c2cc(=O)c(O)cn2O)no1)c1csc(N)n1)C(=O)[O-].[Na+].[Na+]"
110

Determine its reported IC50: "Nc1nc(/C(=N/OC2(C(=O)O)CCC2)C(=O)N[C@@H]2C(=O)N(S(=O)(=O)O)[C@@H]2CNC(=O)NCc2cc(=O)c(O)cn2O)cs1"
340

Identify IC50 associated with the molecule "CC(C)(O/N=C(\C(=O)N[C@@H]1C(=O)N(S(=O)(=O)O)[C@@H]1CNC(=O)NCc1cc(=O)c(O)cn1O)c1csc(N)n1)C(=O)NO"
3020

* * *

Tested on: Acinetobacter baumannii
Experiment: Antibacterial activity against Acinetobacter baumannii AB-3167 by broth microdilution method
Type: functional
# MIC per entry
Only the number, expressed in µg/mL, is required.

In [3]: df
Out[3]:
                               query_smiles        system_under_test  value_type  unit_abbreviation  experimental_value
0  COn1cc(O)c(=O)cc1C(=O)NC[C@@H]1[C@H](NC(=O)/C(=N\OC(C)(C)C(=O)O)c2csc(N)n2)C(=O)N1S(=O)(=O)O  Acinetobacter baumannii         MIC              µg/mL                   1

Next compound, please.
Specify measured MIC for "CC(C)(O/N=C(\C(=O)N[C@@H]1C(=O)N(S(=O)(=O)O)[C@@H]1CNC(=O)c1cc(=O)c(O)co1)c1csc(N)n1)C(=O)O" .
8
